# system-tested: cloned human m1 muscarinic receptor (Homo sapiens)
# Sequence (P11229 whole entry): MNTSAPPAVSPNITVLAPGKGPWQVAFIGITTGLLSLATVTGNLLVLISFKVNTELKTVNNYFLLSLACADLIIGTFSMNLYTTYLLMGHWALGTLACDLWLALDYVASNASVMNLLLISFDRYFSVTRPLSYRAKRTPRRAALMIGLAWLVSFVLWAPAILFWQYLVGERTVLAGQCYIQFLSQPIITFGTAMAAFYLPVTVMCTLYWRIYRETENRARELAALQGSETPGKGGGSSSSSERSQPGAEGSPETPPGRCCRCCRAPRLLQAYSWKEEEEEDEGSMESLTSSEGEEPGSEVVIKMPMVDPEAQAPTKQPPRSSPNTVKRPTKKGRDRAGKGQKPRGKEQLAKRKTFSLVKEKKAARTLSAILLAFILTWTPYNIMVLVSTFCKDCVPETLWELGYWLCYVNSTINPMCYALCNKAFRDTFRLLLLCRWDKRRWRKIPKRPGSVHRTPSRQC
# assay-protocol: Muscarinic binding activity (3H-QNB displacement), m1
# stated-conditions: membranes of transfected CHO cells, read-out: Ki m1
Exercise: state measured Ki for each of the compounds provided.
Lab note: write values as number then unit, every time.

Completed entries (count: 5):
c1cnc(Oc2ccc3c(c2)CC(CC2CCCCC2)C3N2CCN(C3CCCCC3)CC2)nc1 (stereo not drawn)	173 nM
c1cnc(Oc2ccc3c(c2)CCCC3N2CCN(C3CCCCC3)CC2)nc1 (stereo not drawn)	160 nM
Nc1ccc(Oc2ccc3c(c2)OCCC3N2CCN(C3CCCCC3)CC2)cc1 (stereo not drawn)	82 nM
c1cnc(Oc2ccc3c(c2)CCC3N2CCN(C3CCCCC3)CC2)nc1 (stereo not drawn) [Compound 9]	265 nM
c1cnc(Oc2ccc3c(c2)CCC3N2CCN(C3CCCCC3)CC2)nc1 (single isomer, unassigned) [Compound 11]	314 nM

// each compound listed below needs its Ki
1. Nc1ccc(Oc2ccc3c(c2)CCCC3N2CCN(C3CCCCC3)CC2)cc1 (stereo not drawn)
2. COc1ccc(S(=O)(=O)c2ccc3c(c2)CCC3N2CCC(N3CCCCC3)CC2)cc1 (stereo not drawn)
3. O=[N+]([O-])c1ccc(Oc2ccc3c(c2)OCCC3N2CCN(C3CCCCC3)CC2)cc1 (stereo not drawn)
4. O=S(=O)(c1ccccc1)c1ccc2c(c1)CCC2N1CCN(CCO)CC1 (stereo not drawn)
5. CC(=O)Nc1ccc(Oc2ccc3c(c2)OCCC3N2CCN(C3CCCCC3)CC2)cc1 (stereo not drawn)

1: 105 nM; 2: 67 nM; 3: 42 nM; 4: 356 nM; 5: 223 nM

Value sought for every listed compound: Ki.
1. O=[N+]([O-])c1ccc(Oc2ccc3c(c2)CCCC3N2CCN(C3CCCCC3)CC2)cc1 (stereo not drawn)
2. c1cnc(Oc2ccc3c(c2)CCC3N2CCN(C3CCCCC3)CC2)nc1 (single isomer, unassigned) [Compound 10]

["633 nM", "151 nM"]
